Target protein (sequence): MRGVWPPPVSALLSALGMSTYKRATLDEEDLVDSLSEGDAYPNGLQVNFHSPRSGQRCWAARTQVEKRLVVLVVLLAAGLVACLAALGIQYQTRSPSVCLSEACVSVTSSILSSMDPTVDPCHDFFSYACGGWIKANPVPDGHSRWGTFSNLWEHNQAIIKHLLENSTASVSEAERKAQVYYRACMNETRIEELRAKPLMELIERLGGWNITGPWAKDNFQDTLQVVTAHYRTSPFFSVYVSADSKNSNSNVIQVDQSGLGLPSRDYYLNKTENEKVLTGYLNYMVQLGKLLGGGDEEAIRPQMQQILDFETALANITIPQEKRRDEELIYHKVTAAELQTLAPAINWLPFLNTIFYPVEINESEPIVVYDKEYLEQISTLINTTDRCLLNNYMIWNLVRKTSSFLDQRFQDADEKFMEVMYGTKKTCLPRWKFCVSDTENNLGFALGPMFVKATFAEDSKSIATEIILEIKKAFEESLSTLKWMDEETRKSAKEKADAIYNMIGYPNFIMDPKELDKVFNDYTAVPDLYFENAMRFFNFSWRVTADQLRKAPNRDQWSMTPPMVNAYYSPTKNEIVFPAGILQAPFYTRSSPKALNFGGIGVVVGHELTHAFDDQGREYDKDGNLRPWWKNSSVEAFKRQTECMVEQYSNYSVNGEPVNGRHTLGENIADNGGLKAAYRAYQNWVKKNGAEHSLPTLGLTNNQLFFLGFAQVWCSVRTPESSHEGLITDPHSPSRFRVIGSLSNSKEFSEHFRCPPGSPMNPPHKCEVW
pIC50: −log10 of the molar value.
Given measured pIC50, output fulfilled if it is greater than or equal to 6 and not fulfilled if not.

>>> class_name("CSc1nnc([C@@H]2C[C@@H](S)CN2S(=O)(=O)c2ccc3ccccc3c2)n1-c1ccccc1")
"fulfilled"

Let us examine a further case.
In: Assess whether reported pIC50 for CSc1nnc([C@@H]2C[C@@H](S)CN2S(=O)(=O)c2ccc(C)cc2)n1-c1ccccc1 sits at 6 or higher.
Out: not fulfilled
